The reported numbers originate from ChEMBL document CHEMBL1201862.

Biological target: Streptokinase A (Streptococcus pyogenes serotype M1, UniProt P10520)
Sequence (P10520 whole entry): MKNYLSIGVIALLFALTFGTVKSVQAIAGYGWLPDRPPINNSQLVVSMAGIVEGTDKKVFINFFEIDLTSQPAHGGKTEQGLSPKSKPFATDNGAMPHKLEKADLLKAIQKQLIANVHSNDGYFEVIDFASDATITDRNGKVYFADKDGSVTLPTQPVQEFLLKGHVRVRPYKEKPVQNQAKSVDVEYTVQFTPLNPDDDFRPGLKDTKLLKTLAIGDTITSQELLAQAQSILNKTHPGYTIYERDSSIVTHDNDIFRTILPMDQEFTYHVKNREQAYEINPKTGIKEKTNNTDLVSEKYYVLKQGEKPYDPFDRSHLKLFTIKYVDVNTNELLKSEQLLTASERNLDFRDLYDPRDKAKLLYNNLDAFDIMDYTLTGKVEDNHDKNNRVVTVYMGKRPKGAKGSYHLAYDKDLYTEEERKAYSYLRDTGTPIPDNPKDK
Experiment: S. pyogenes streptokinase expression inhibitors, potency, dose response, plasminogen activation absorbance, OD405 (AID 1914);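 note: secreted streptokinase activity via plasminogen activation per viability signal from cell pellet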
Assay type: functional, Streptococcus pyogenes M1 GAS
Activity calls are given as the source filed them. Cut-off read from the data, not from the text of the source: actives have a measured EC50 and inactives only a lower limit.
Measured EC50 accompanies every entry in the list below.

A selection of reference data follows.
{"Compound": "COc1cc(-c2ccc(NC(=O)NC3CC3)c(OC)c2)ccc1NC(=O)NC1CC1", "EC50": "> 150 µM (not active)"}
{"Compound": "Cc1ccccc1OCC(=O)Nc1ccccc1N1CCCCC1", "EC50": "14.2 µM (active)"}
{"Compound": "COc1ccc(S(=O)(=O)NCC(c2ccc(F)cc2)N2CCN(C)CC2)cc1 (stereo not given)", "EC50": "> 150 µM (not active)"}
{"Compound": "Nc1nonc1C(=O)NCC/N=C/c1cc(Cc2ccccc2)cc(Br)c1O", "EC50": "> 150 µM (not active)"}
{"Compound": "Oc1cc(O)nc(SCc2ccc(Cl)cc2)n1", "EC50": "> 150 µM (not active)"}
{"Compound": "Brc1ccccc1C1Nc2cccc3cccc(c23)N1", "EC50": "> 150 µM (not active)"}
{"Compound": "Cc1cc(NC(=S)N(Cc2ccc(Cl)cc2)Cc2ccc(C(=O)O)cc2)ccc1Cl", "EC50": "> 150 µM (not active)"}
{"Compound": "CCOC(=O)C1=C(c2ccc(OC)cc2)C(=O)c2ccccc2C1=O", "EC50": "> 150 µM (not active)"}

The reported EC50 of the compound `CCOC(=O)c1sc(NC(=O)c2cc(-c3ccccc3C)nc3ccccc23)c(C#N)c1C` was > 150 µM (not active)

The reported EC50 of the compound `COc1cccc(CNCC(O)(c2ccc(Cl)cc2)c2ccc(Cl)cc2)c1` was 18.9 µM (active)

The reported EC50 of the compound `O=C(OCc1ccccc1)c1cccc(-c2nnn(Cc3ccccc3)n2)c1` was 26 µM (inconclusive)

The reported EC50 of the compound CCCCCCCCCCCCN1C(=O)CSC1c1cccnc1 (stereo not given) was 20.4 µM (active)

The reported EC50 of the compound `COc1ccc(/C=N/n2c(S)nnc2-c2cccs2)cc1` was > 150 µM (not active)

The reported EC50 of the compound `O=C(c1ccc2c3n(nc2c1)-c1ccccc1CO3)N1CCCCC1` was > 150 µM (not active)

The reported EC50 of the compound `COc1ccc(OC)c(N/C=C2/C(=O)NC(=S)N(Cc3ccccc3)C2=O)c1` was > 150 µM (not active)

The reported EC50 of the compound `CCOC(=O)c1cc(-c2ccc3c(c2)OCCO3)nc2c1c(C)nn2CCC#N` was > 150 µM (not active)

The reported EC50 of the compound `O=c1cc2c(nn1Cc1ccc(Cl)cc1Cl)-c1ccccc1CC2` was 11 µM (active)

The reported EC50 of the compound COc1ccc(/N=C2\S/C(=C\c3ccc(OC(C)C(=O)O)c(OC)c3)C(=O)N2CCc2c[nH]c3ccccc23)cc1 (stereo not given) was > 50 µM (not active)

The reported EC50 of the compound `CCCCNc1c(-c2ccc(OC)c(SC3CCCCC3)c2)nc2cnccn12` was 6.56 µM (active)

The reported EC50 of the compound `CN(C)c1nc(SCc2ccccc2Cl)nc2c1CCCC2` was 14 µM (active)
